Every entry's value here was drawn from ChEMBL document CHEMBL6071168.

# EXPERIMENT: MRT (0 to t) in ICR mouse at 5 mg/kg, iv by HPLC-MS/MS analysis
# Assay type: ADME, organism-based
# EXPERIMENTAL CONTEXT: in vivo
MEASUREMENT KIND: MRT last (h)

[
  {
    "STRUCTURE SMILES": "COc1ccc(S(=O)(=O)NC(=O)c2cc(Cl)cc(-c3nc4ccccc4[nH]3)c2)cc1",
    "MEASUREMENT KIND": "MRT last",
    "VAL": 1.86
  }
]

----------
# EXPERIMENT: Clearance in ICR mouse at 5 mg/kg, iv by HPLC-MS/MS analysis
# Format: ADME, organism-based
# EXPERIMENTAL CONTEXT: in vivo

[
  {
    "STRUCTURE SMILES": "COc1ccc(S(=O)(=O)NC(=O)c2cc(Cl)cc(-c3nc4ccccc4[nH]3)c2)cc1",
    "MEASUREMENT UNIT": "mL/min/kg",
    "clearance": 5.27
  }
]

----------
# EXPERIMENT: Oral Bioavailability in ICR mouse at 100 mg/kg by HPLC-MS/MS analysis
# Format: ADME, organism-based
# EXPERIMENTAL CONTEXT: in vivo
MEASUREMENT KIND: bioavailability (%)

[
  {
    "STRUCTURE SMILES": "COc1ccc(S(=O)(=O)NC(=O)c2cc(Cl)cc(-c3nc4ccccc4[nH]3)c2)cc1",
    "VAL": 6.15
  }
]

----------
# EXPERIMENT: MRT (0 to t) in ICR mouse at 100 mg/kg, po by HPLC-MS/MS analysis
# Format: ADME, organism-based
# EXPERIMENTAL CONTEXT: in vivo
MEASUREMENT KIND: MRT last (h)

[
  {
    "STRUCTURE SMILES": "COc1ccc(S(=O)(=O)NC(=O)c2cc(Cl)cc(-c3nc4ccccc4[nH]3)c2)cc1",
    "VAL": 3
  }
]

----------
# EXPERIMENT: Inhibition of Fructose-1,6-bisphosphatase (unknown origin)
# Set-up: species or system Homo sapiens
pIC50: −log10 of the molar value.

[
  {
    "STRUCTURE SMILES": "S=C(SSC(=S)n1cccc1)n1cccc1",
    "pIC50": 6.89
  },
  {
    "STRUCTURE SMILES": "COc1ccccc1CNC(=O)N1C(=O)c2ccccc2S1(=O)=O",
    "pIC50": 5.77
  },
  {
    "STRUCTURE SMILES": "CC(C)=CCc1c(O)cc(O)c2c(=O)c(O)c(-c3ccc(O)c(O)c3)oc12",
    "pIC50": 5.44
  }
]

----------
# EXPERIMENT: Tmax in ICR mouse at 5 mg/kg, iv by HPLC-MS/MS analysis
# Type: ADME, organism-based
# EXPERIMENTAL CONTEXT: in vivo

[
  {
    "STRUCTURE SMILES": "COc1ccc(S(=O)(=O)NC(=O)c2cc(Cl)cc(-c3nc4ccccc4[nH]3)c2)cc1",
    "Tmax (min)": 1.98
  }
]

----------
# Species on record: Homo sapiens
# EXPERIMENT: Inhibition of Fructose-1,6-bisphosphatase (unknown origin) preincubated for 10 min followed by addition of NADP+, PGI,G6PDH at 10 uM measured after 40 min by absorption based analysis relative to control
# EXPERIMENTAL CONTEXT: time 50.0 min

[
  {
    "STRUCTURE SMILES": "COc1ccc(S(=O)(=O)Nc2ccccc2-c2nc3ccccc3n2Cc2ccc(Cl)cc2)cc1",
    "inhibition (%)": 5.6
  },
  {
    "STRUCTURE SMILES": "Cn1c(-c2cccc(NS(=O)(=O)c3ccc(Cl)cc3)c2)nc2ccccc21",
    "inhibition (%)": 0
  },
  {
    "STRUCTURE SMILES": "COc1ccc(S(=O)(=O)Nc2ccccc2-c2nc3ccccc3n2-c2ccc(NC(C)=O)cc2)cc1",
    "inhibition (%)": 36.8
  },
  {
    "STRUCTURE SMILES": "O=S(=O)(Nc1cccc(-c2nc3ccccc3n2Cc2ccc(Cl)cc2)c1)c1ccc(Cl)cc1",
    "inhibition (%)": 16.2
  },
  {
    "STRUCTURE SMILES": "COc1ccc(S(=O)(=O)Nc2cccc(-c3nc4ccccc4n3C3CCCCC3)c2)cc1",
    "inhibition (%)": 47.4
  },
  {
    "STRUCTURE SMILES": "CC(=O)Nc1ccc(-n2c(-c3cccc(NS(=O)(=O)c4ccc(Cl)cc4)c3)nc3ccccc32)cc1",
    "inhibition (%)": 21.1
  },
  {
    "STRUCTURE SMILES": "O=S(=O)(Nc1cccc(-c2nc3ccccc3n2C2CCCCC2)c1)c1ccc(Cl)cc1",
    "inhibition (%)": 24.8
  },
  {
    "STRUCTURE SMILES": "COc1ccc(S(=O)(=O)Nc2ccccc2-c2nc3ccccc3n2C2CCCCC2)cc1",
    "inhibition (%)": 17.3
  },
  {
    "STRUCTURE SMILES": "COc1ccc(S(=O)(=O)Nc2cccc(-c3nc4ccccc4n3-c3ccc(Cl)cc3)c2)cc1",
    "inhibition (%)": 52.6
  }
]
